Biological target: 5-hydroxytryptamine receptor 6 (Homo sapiens)
Conditions: Compound concentration 10 µM; call rule not given here
Please answer using one outcome listed in 1 = active, -1 = inactive

[[record]]
molecule = "OCc1cc(C(O)CNCCCCCCOCCCCc2ccccc2)ccc1O (stereo not given)"
assigned_category = -1

[[record]]
molecule = "CC(C)NCC(O)COc1ccc(CCOCC2CC2)cc1 (stereo not given)"
assigned_category = -1

[[record]]
molecule = "Cc1ccc2c(c1)c1c(n2CCc2ccc(C)nc2)CCN(C)C1"
assigned_category = 1

[[record]]
molecule = "Clc1cccc(COc2cncc(N3CCNCC3)n2)c1"
assigned_category = 1

[[record]]
molecule = "Cc1cccc(NC(=O)N[C@@H]2N=C(c3ccccc3)c3ccccc3N(C)C2=O)c1"
assigned_category = -1

[[record]]
molecule = "CNc1nc(NCc2ccc(NS(C)(=O)=O)cc2Cl)cc(-c2ccccn2)n1"
assigned_category = -1


Query block: So what was the verdict on OC1(c2ccc(Cl)cc2)CCN(Cc2c[nH]c3ccccc23)CC1 in this test?
Result block: -1

Query block: So what was the verdict on CCc1cc(C(C)=O)c(O)cc1OCCCCCC(C)(C)c1nn[nH]n1 in this test?
Result block: -1

Query block: So what was the verdict on CCC[C@H](Oc1cc(C)c(-n2cc(C(F)(F)F)cn2)c(C)c1)c1ccc(C(=O)NCCC(=O)O)cc1 in this test?
Result block: -1

Query block: So what was the verdict on COc1ccc(CNC(=O)c2cc(-c3cncc(Cl)c3)cnc2-c2ccccn2)nc1OC in this test?
Result block: -1

Query block: So what was the verdict on Cc1c(C2=CCN(C(=O)N(C)C(C)C)CC2)nnn1-c1cccnc1F in this test?
Result block: -1

----------
Molecular target: D(2) dopamine receptor (Homo sapiens)
Conditions: Compound concentration 10 µM
Description: PDSP Primary Binding target: DRD2 - Compounds are tested at 10 uM concentration, plate are incubated at room temperature in the dark for 90 minutes. Reaction are stopped by vacuum filtration onto 0.3% polyethyleneimine soaked filter mats using Filtermate harvester. Scintilation cocktail is then melted onto microwave-dried filters on a hot plate and the radio activity is counted in Microbia counter.
# label = True if inhibition >= 20% else False

Take a look at these entries with their results.
[[record]]
record_smiles = "Clc1ccc(CCCOCCCN2CCCCC2)cc1"
assigned_category = "False"

[[record]]
record_smiles = "CNC[C@H](O)c1cccc(O)c1"
assigned_category = "False"

[[record]]
record_smiles = "Cc1nc(-c2ccc(C(F)(F)F)cc2)sc1COc1ccc([C@H](CC(=O)O)c2ccon2)cc1"
assigned_category = "False"

[[record]]
record_smiles = "CCc1cc2c(c(CC)n1)CCC(=O)N2Cc1ccc(-c2ccccc2-c2nnn[nH]2)cc1"
assigned_category = "True"


Query block: // inclusive: inhibition at least 20%? input: CCCCN(CCCC)C(=O)CN1C[C@@H](c2ccc3c(c2)OCO3)[C@H](C(=O)O)[C@H]1c1ccc(OC)cc1
Result block: True

----------
Biological target: Muscarinic acetylcholine receptor M1 (Homo sapiens) (UniProt P11229)
Sequence (P11229 whole entry): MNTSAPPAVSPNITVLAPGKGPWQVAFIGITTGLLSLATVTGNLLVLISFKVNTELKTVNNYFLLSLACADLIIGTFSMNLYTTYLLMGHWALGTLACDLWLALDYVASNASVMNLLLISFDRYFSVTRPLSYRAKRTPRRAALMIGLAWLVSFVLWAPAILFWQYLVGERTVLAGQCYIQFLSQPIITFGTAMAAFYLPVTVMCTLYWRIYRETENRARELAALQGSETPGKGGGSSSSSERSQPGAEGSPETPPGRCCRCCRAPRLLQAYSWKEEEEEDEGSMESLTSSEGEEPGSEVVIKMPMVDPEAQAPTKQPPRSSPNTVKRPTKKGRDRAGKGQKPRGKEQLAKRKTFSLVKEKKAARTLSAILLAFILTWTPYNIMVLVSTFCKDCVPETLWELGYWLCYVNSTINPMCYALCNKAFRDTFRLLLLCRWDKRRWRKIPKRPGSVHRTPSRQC
Conditions: Compound concentration 10 µM
Description: PDSP Primary Binding target: CHRM1 - Compounds are tested at 10 uM concentration, plate are incubated at room temperature in the dark for 90 minutes. Reaction are stopped by vacuum filtration onto 0.3% polyethyleneimine soaked filter mats using Filtermate harvester. Scintilation cocktail is then melted onto microwave-dried filters on a hot plate and the radio activity is counted in Microbia counter.
ENDPOINT_NAME: inhibition (%)
One number for each entry, in %.

// worked examples, inhibition included
[[record]]
record_smiles = "FC(F)(F)c1cccc(-c2noc(-c3cc(-c4ccccc4)c(C(F)(F)F)s3)n2)c1"
endpoint_name = "inhibition"
number = 21.5

[[record]]
record_smiles = "C[C@H](NC[C@H](O)CP(=O)(O)CC1CCCCC1)c1ccc(Cl)c(Cl)c1"
endpoint_name = "inhibition"
number = 8.07

[[record]]
record_smiles = "O=C(O)C1CN(Cc2ccc(-c3nc4cc(Cc5ccccc5F)ccc4s3)c(F)c2)C1"
endpoint_name = "inhibition"
number = 0.63

[[record]]
record_smiles = "COc1ccc2cc(S(=O)(=O)N[C@H](CC(=O)N[C@H](Cc3ccc(CN4[C@H](C)CCC[C@@H]4C)cc3)C(=O)N(C)C(C)C)c3ccc4c(c3)OCO4)ccc2c1"
endpoint_name = "inhibition"
number = 44.5

[[record]]
record_smiles = "N#Cc1c[nH]c2c(C(=O)N3CCN(CCc4ccc(F)cc4)CC3)cccc12"
endpoint_name = "inhibition"
number = -2.04


Please state inhibition for every compound in the list that follows.
1. CN(C)C(=O)N[C@H]1CC[C@H](CCN2CCN(c3cccc(Cl)c3Cl)CC2)CC1
2. Cc1csc2c(N[C@@H](C)CN3CCN(S(=O)(=O)c4ccc(Cl)c(Cl)c4)CC3)ncnc12
3. Cc1nn(C)c(C)c1-c1cccc2c1CC[C@H](N(C)C)C2
4. S=C(NCCCc1c[nH]cn1)NCCCN(Cc1ccc(Cl)c(Cl)c1)c1ccc(Br)cn1

Result block:
1. 11.8
2. 6.35
3. 29.3
4. 60.7

----------
Biological target: Histamine H2 receptor (Homo sapiens) (UniProt P25021)
Sequence (P25021 whole entry): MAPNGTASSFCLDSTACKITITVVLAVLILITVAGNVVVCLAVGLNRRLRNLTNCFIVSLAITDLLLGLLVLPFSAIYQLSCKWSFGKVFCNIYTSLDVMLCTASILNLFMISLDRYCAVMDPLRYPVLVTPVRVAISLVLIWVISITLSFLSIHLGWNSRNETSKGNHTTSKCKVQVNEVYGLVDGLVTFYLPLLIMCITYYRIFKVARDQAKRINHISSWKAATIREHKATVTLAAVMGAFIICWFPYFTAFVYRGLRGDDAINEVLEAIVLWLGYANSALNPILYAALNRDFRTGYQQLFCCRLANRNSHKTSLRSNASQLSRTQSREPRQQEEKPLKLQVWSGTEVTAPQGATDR
Conditions: Compound concentration 10 µM
Description: PDSP Primary Binding target: HRH2 - Compounds are tested at 10 uM concentration, plate are incubated at room temperature in the dark for 90 minutes. Reaction are stopped by vacuum filtration onto 0.3% polyethyleneimine soaked filter mats using Filtermate harvester. Scintilation cocktail is then melted onto microwave-dried filters on a hot plate and the radio activity is counted in Microbia counter.
# label = True if inhibition >= 20% else False

Take a look at these entries with their results.
[[record]]
record_smiles = "Cc1csc(NC(=O)c2cc(F)cc(Oc3cncnc3)c2)n1"
assigned_category = "True"

[[record]]
record_smiles = "CNc1nc(NCc2ccc(NS(C)(=O)=O)cc2Cl)cc(-c2ccccn2)n1"
assigned_category = "False"

[[record]]
record_smiles = "CCOC(=O)c1cc(C#N)c(N2CCC(C(=O)NS(=O)(=O)Cc3ccccc3)CC2)nc1C"
assigned_category = "False"

[[record]]
record_smiles = "COC1CCN(c2cccc(-c3cc(NC(C)=O)nc(-n4nc(C)cc4C)n3)n2)CC1"
assigned_category = "True"


Next:
Query block: // inclusive: inhibition at least 20%? input: COc1cc(-n2cnc3cc(-c4ccc(Cl)cc4)sc3c2=O)ccc1OCCN1CCCC1
Result block: False

----------
Target: 5-hydroxytryptamine receptor 1A (Homo sapiens) (UniProt P08908)
Sequence (whole entry): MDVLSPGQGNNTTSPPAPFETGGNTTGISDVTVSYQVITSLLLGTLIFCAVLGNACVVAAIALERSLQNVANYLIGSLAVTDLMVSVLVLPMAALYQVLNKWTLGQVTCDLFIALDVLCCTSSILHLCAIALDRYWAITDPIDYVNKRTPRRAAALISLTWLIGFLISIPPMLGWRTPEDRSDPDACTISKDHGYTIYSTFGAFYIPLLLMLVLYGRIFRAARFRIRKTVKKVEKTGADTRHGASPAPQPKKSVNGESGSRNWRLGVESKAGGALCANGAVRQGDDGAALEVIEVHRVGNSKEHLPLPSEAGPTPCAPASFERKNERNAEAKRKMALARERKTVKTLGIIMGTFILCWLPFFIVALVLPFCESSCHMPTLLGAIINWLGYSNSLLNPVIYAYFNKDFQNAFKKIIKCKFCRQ
Settings: Compound concentration 10 µM
Description: PDSP Primary Binding target: HTR1A - Compounds are tested at 10 uM concentration, plate are incubated at room temperature in the dark for 90 minutes. Reaction are stopped by vacuum filtration onto 0.3% polyethyleneimine soaked filter mats using Filtermate harvester. Scintilation cocktail is then melted onto microwave-dried filters on a hot plate and the radio activity is counted in Microbia counter.
Would you mind telling me the reported inhibition of each entry?
Answers are plain numbers, in %.

Please state inhibition for every compound in the list that follows.
1. CCC(=O)NCC[C@@H]1CCc2ccc3c(c21)CCO3
2. CCCCN(CCCC)C(=O)CN1C[C@@H](c2ccc3c(c2)OCO3)[C@H](C(=O)O)[C@H]1c1ccc(OC)cc1
3. Clc1ccc(CCCOCCCN2CCCCC2)cc1
4. CCCCN(CC)c1nc(C)nc2c1c(C)cn2-c1c(C)cc(C)cc1C
5. FC(F)(F)c1cccc(-c2noc(-c3cc(-c4ccccc4)c(C(F)(F)F)s3)n2)c1
6. COc1cc2nc(N3CCN(C(=O)c4ccco4)CC3)nc(N)c2cc1OC
7. O=C(Cc1ccc(Cl)c(Cl)c1)N1CCCC[C@H]1CN1CCCC1
8. CC(C)NCC(O)COc1ccc(CCOCC2CC2)cc1 (stereo not given)

Result block:
-7.41
-4.59
16.8
-6.24
2.88
8.03
-1.23
-1.07

----------
Biological target: Alpha-1A adrenergic receptor (Homo sapiens)
Sequence (whole entry): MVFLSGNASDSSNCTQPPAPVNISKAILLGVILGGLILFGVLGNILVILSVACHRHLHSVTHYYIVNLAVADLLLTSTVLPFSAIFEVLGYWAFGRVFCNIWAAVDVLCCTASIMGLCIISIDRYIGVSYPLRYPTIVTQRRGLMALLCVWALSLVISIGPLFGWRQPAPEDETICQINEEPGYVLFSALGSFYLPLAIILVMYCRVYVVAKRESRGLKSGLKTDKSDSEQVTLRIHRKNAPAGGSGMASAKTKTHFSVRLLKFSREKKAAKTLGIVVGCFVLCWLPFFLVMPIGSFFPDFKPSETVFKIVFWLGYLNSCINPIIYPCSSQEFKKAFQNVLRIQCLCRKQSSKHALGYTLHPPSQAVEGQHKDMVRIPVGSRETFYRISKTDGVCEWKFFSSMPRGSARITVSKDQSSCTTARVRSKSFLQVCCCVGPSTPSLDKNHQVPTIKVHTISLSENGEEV
Details: Compound concentration 10 µM
Description: PDSP Primary Binding target: ADRA1A - Compounds are tested at 10 uM concentration, plate are incubated at room temperature in the dark for 90 minutes. Reaction are stopped by vacuum filtration onto 0.3% polyethyleneimine soaked filter mats using Filtermate harvester. Scintilation cocktail is then melted onto microwave-dried filters on a hot plate and the radio activity is counted in Microbia counter.
ENDPOINT_NAME: inhibition (%)
Numbers only, in %.

[[record]]
compound = "COc1ccc2[nH]cc(CCNC(C)=O)c2c1"
endpoint_name = "inhibition"
units_text = "%"
number = -4.46

[[record]]
compound = "Cc1cc(C(=O)N2Cc3cnn(C)c3Nc3ccccc32)ccc1CNC(=O)N1CCC[C@H]1C(=S)N1CCCN(C)CC1"
endpoint_name = "inhibition"
units_text = "%"
number = -5.86

[[record]]
compound = "c1cc(CN2CCCNCCNCCCNCC2)ccc1CN1CCCNCCNCCCNCC1"
endpoint_name = "inhibition"
units_text = "%"
number = -9.28

[[record]]
compound = "O=C(O)C1CN(Cc2ccc(-c3nc4cc(Cc5ccccc5F)ccc4s3)c(F)c2)C1"
endpoint_name = "inhibition"
units_text = "%"
number = -8.12

[[record]]
compound = "CCCCN(CCCC)C(=O)CN1C[C@@H](c2ccc3c(c2)OCO3)[C@H](C(=O)O)[C@H]1c1ccc(OC)cc1"
endpoint_name = "inhibition"
units_text = "%"
number = 11.4

[[record]]
compound = "C[C@@H](NCCc1ccc(O)cc1)[C@@H](O)c1ccc(O)cc1 (relative stereo)"
endpoint_name = "inhibition"
units_text = "%"
number = 7.01

[[record]]
compound = "CCc1cc2c(cc1CC)CC(NC[C@H](O)c1ccc(O)c3[nH]c(=O)ccc13)C2"
endpoint_name = "inhibition"
units_text = "%"
number = 84.1

[[record]]
compound = "O=C(Cc1ccccc1)Nc1nc2ccc(Cl)cc2c2nc(-c3ccco3)nn12"
endpoint_name = "inhibition"
units_text = "%"
number = 10.4

[[record]]
compound = "CC(C)NCC(O)COc1cccc2ccccc12 (stereo not drawn)"
endpoint_name = "inhibition"
units_text = "%"
number = 14.6

[[record]]
compound = "Brc1c(NC2=NCCN2)ccc2nccnc12"
endpoint_name = "inhibition"
units_text = "%"
number = 34


Please state inhibition for every compound in the list that follows.
1. CCCn1c(=O)c2[nH]c(-c3cnn(Cc4cccc(C(F)(F)F)c4)c3)nc2n(CC)c1=O
2. CN[C@@H]1CCc2[nH]c3ccc(C(N)=O)cc3c2C1
3. O=c1ccc2ccc(OCCCCN3CCN(c4cccc5sccc45)CC3)cc2[nH]1
4. CCC[C@H](Oc1cc(C)c(-n2cc(C(F)(F)F)cn2)c(C)c1)c1ccc(C(=O)NCCC(=O)O)cc1
5. C[C@@H](NCCCc1cccc(C(F)(F)F)c1)c1cccc2ccccc12
6. CCc1ccc(OCc2ccccc2C(=O)Nc2ccc3nc(C)cc(N)c3c2)cc1
7. Cc1nc(C(=O)N2CCC[C@H]2Cc2nnc(-c3ccccc3)o2)c(-c2ccccc2F)s1
8. Cc1cc(NC(=O)NCCN2CCC(O)(Cc3ccccc3)CC2)c2ccccc2n1

Result block:
1: -4.72; 2: 11.8; 3: 100; 4: 8.94; 5: 38.5; 6: 45.6; 7: 1.08; 8: 23.9

Please state inhibition for every compound in the list that follows.
1. CCCCCNC(=O)NS(=O)(=O)c1cc([N+](=O)[O-])ccc1NC1CCCCC1
2. CC(C)C[C@H](NC(=O)N1CCCCCC1)C(=O)N[C@H](Cc1cn(C)c2ccccc12)C(=O)N[C@H](Cc1ccccn1)C(=O)O
3. CCCCCCCCCCCCCCCCOC[C@H](COP(=O)([O-])OCC[N+](C)(C)C)OC(C)=O
4. Cc1nc2sccn2c(=O)c1CCN1CCC(=C(c2ccc(F)cc2)c2ccc(F)cc2)CC1
5. Cc1nc(C#Cc2ccnc(Cl)c2)c(C)n1-c1ccc(OC(F)(F)F)cc1

Result block:
1. -4
2. 14.1
3. 34.5
4. 96.8
5. 14.3

Please state inhibition for every compound in the list that follows.
1. CN(C)C(=O)N[C@H]1CC[C@H](CCN2CCN(c3cccc(Cl)c3Cl)CC2)CC1
2. Cc1ccccc1N1CCN(S(=O)(=O)C[C@]23CC[C@H](C[C@@H]2NC(=O)[C@@H](N)CCS(C)(=O)=O)C3(C)C)CC1
3. Oc1ccc2c3c1O[C@H]1c4[nH]c5c(c4C[C@@]4(O)[C@@H](C2)N(CC2CC2)CC[C@]314)C[C@@]1(O)[C@H]2Cc3ccc(O)c4c3[C@@]1(CCN2CC1CC1)[C@H]5O4
4. COc1ccc(S(=O)(=O)N2c3ccc(Cl)cc3[C@](O)(c3ccccc3Cl)[C@@H]2C(=O)N2CCC[C@H]2C(N)=O)cc1OC
5. O=C1N/C(=N/c2ccccc2F)S/C1=C\c1ccc(C(=O)O)cc1
6. O=C(O)COc1cccc(CN(Cc2ccc(-n3cccn3)cc2)S(=O)(=O)c2cccnc2)c1
7. COc1ccc(/C=C/CCCCOc2ccc(C(=O)c3cccc(C(=O)O)c3)cc2CCC(=O)O)cc1

Result block:
89.1
19.4
30.1
-4.04
-2.85
-1.12
11.7

Please state inhibition for every compound in the list that follows.
1. CCc1cc(C(C)=O)c(O)cc1OCCCCCC(C)(C)c1nn[nH]n1
2. C[N+]1(C)[C@@H]2C[C@@H](OC(=O)C(O)(c3cccs3)c3cccs3)C[C@H]1[C@@H]1O[C@@H]12
3. c1nc(CC2CCNCC2)c[nH]1
4. C[C@H](CO)Nc1nc(SCc2cccc(Cl)c2F)nc2[nH]c(=O)sc12
5. CCc1nn(CCCN2CCN(c3cccc(Cl)c3)CC2)c(=O)n1CCOc1ccccc1

Result block:
1. 8.06
2. 3.89
3. -4.11
4. -7.6
5. 96

Please state inhibition for every compound in the list that follows.
1. O=C(O)CC/C=C\C[C@@H]1CO[C@H](c2ccccc2Cl)O[C@@H]1c1ccccc1O
2. COc1ccc(NS(=O)(=O)c2sc3ccc(Cl)cc3c2C)cc1N1CCNCC1
3. CNC[C@H](O)c1ccc(O)c(O)c1

Result block:
[-9.2, 39.7, 6.21]
